study_target: KPC-2 (Klebsiella pneumoniae, UniProt Q9F663)
Sequence (Q9F663 25-293, looked up, species assumed): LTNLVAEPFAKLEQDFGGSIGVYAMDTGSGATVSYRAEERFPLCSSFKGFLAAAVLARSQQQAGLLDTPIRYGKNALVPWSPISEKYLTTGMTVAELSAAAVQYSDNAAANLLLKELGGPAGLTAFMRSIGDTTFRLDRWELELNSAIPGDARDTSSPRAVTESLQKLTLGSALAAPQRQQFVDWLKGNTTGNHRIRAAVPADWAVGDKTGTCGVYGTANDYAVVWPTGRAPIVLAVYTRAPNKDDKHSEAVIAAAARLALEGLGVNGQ
test_details: Ki app determination (Waley's method)
readout_label: pKi
In plain terms, pKi is the concentration in mol/L turned into minus its base-10 logarithm.

Examples with their reported pKi follow.
1) O=C(O)C[C@@H]1CC[C@H](NC(=O)Cc2cccs2)B(O)O1 [Vaborbactam, vaborbactam] : 7.20
2) N[C@@H](C(=O)N1CC(Oc2ccc3c(c2C(=O)O)OB(O)CC3)C1)c1c[nH]cn1 [KSP-1007] : 8.84

Continue with the compound presented below.
Reported pKi for C[C@]1(Cn2ccnn2)[C@H](C(=O)O)N2C(=O)C[C@H]2S1(=O)=O [Tazobactam, tazobactam] : what is it?
6.80

====

# reported pKi; entries follow
study_target: OXA-23 (Acinetobacter baumannii, UniProt Q9L4P2)
Sequence (Q9L4P2 18-273): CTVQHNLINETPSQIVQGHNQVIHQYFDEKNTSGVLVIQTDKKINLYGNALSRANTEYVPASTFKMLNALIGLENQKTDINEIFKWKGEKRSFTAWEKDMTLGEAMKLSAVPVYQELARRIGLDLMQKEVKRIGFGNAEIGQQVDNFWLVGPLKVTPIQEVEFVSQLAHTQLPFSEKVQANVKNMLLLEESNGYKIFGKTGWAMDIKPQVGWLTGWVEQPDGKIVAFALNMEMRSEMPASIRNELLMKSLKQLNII
test_details: Ki app determination (Waley's method)
In plain terms, pKi is the concentration in mol/L turned into minus its base-10 logarithm.

Examples with their reported pKi follow.
1) N[C@@H](C(=O)N1CC(Oc2ccc3c(c2C(=O)O)OB(O)CC3)C1)c1c[nH]cn1 : 8.39
2) O=C(NC1CCNCC1)[C@@H]1CC[C@@H]2CN1C(=O)N2OS(=O)(=O)O : 5.25

Reported pKi for "C[C@]1(Cn2ccnn2)[C@H](C(=O)O)N2C(=O)C[C@H]2S1(=O)=O" : what is it?
7.85

====

study_target: IMP-1 (Serratia marcescens, UniProt P52699)
Sequence (P52699 19-246, looked up, species assumed): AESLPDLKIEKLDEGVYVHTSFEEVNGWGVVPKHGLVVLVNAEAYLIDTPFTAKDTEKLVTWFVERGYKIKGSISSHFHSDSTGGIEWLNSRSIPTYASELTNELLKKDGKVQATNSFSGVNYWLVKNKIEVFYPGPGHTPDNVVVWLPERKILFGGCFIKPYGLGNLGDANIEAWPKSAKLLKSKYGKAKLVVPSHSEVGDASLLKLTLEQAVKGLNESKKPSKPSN
test_details: Ki app determination (Waley's method)
readout_label: Ki

Examples with their reported Ki follow.
1. O=C(NC1CCNCC1)[C@@H]1CC[C@@H]2CN1C(=O)N2OS(=O)(=O)O : > 100 µM
2. C[C@]1(Cn2ccnn2)[C@H](C(=O)O)N2C(=O)C[C@H]2S1(=O)=O : > 100 µM
3. O=C(O)C[C@@H]1CC[C@H](NC(=O)Cc2cccs2)B(O)O1 : > 100 µM
4. NC(=O)[C@@H]1CC[C@@H]2CN1C(=O)N2OS(=O)(=O)O : > 100 µM

Continue with the compound presented below.
Reported Ki for "N[C@@H](C(=O)N1CC(Oc2ccc3c(c2C(=O)O)OB(O)CC3)C1)c1c[nH]cn1" : what is it?
0.512 µM

====

study_target: NDM-1 (Klebsiella pneumoniae)
Sequence (C7C422 29-270, looked up, species assumed): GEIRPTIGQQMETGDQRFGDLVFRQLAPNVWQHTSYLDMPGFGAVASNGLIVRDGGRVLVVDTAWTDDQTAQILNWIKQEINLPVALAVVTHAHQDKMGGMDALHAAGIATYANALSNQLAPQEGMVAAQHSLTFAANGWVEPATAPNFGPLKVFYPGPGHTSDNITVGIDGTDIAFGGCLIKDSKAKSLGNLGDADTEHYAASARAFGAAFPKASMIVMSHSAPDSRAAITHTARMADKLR
test_details: Ki app determination (Waley's method)
pKi: −log10 of the molar value.
readout_label: pKi

1. NC(=O)[C@@H]1CC[C@@H]2CN1C(=O)N2OS(=O)(=O)O [Avibactam, avibactam] : < 4.00

Reported pKi for O=C(O)C[C@@H]1CC[C@H](NC(=O)Cc2cccs2)B(O)O1 [Vaborbactam, vaborbactam] : what is it?
< 4.00

Reported pKi for C[C@]1(Cn2ccnn2)[C@H](C(=O)O)N2C(=O)C[C@H]2S1(=O)=O [Tazobactam, tazobactam] : what is it?
< 4.00

Reported pKi for N[C@@H](C(=O)N1CC(Oc2ccc3c(c2C(=O)O)OB(O)CC3)C1)c1c[nH]cn1 [KSP-1007] : what is it?
6.90

Reported pKi for O=C(NC1CCNCC1)[C@@H]1CC[C@@H]2CN1C(=O)N2OS(=O)(=O)O [Relebactam, relebactam] : what is it?
< 4.00

====

# reported MIC50; entries follow
Test system: MEM-, imipenem/relebactam-, and ceftolozane/tazobactam-nonsusceptible P. aeruginosa
test_details: MIC, broth microdilution
Assay type: cell-based, Pseudomonas aeruginosa
experimental_context: Pseudomonas aeruginosa, MEM-nonsusceptible Pseudomonas aeruginosa (76); fixed concentration (μg/mL) in label; read-out: MIC50
The reply should contain only the number, in µg/mL.

Reported MIC50 for CC(C)(O/N=C(\C(=O)N[C@@H]1C(=O)N2C(C(=O)[O-])=C(C[N+]3(CCNC(=O)c4ccc(O)c(O)c4Cl)CCCC3)CS[C@H]12)c1csc(N)n1)C(=O)O [FDC, cefiderocol] : what is it?
0.5

Reported MIC50 for C[C@H]1COc2c(N3CCN(C)CC3)c(F)cc3c(=O)c(C(=O)O)cn1c23 [Levofloxacin] : what is it?
32

Reported MIC50 for C[C@@H](O)[C@H]1C(=O)N2C(C(=O)O)=C(SCCN=CN)C[C@H]12 [Imipenem] : what is it?
32

Reported MIC50 for CN(C)c1cc(NC(=O)CNC(C)(C)C)c(O)c2c1C[C@H]1C[C@H]3[C@H](N(C)C)C(O)=C(C(N)=O)C(=O)[C@@]3(O)C(O)=C1C2=O [tigecycline] : what is it?
4

Reported MIC50 for O=C(O)c1cn(C2CC2)c2cc(N3CCNCC3)c(F)cc2c1=O [Ciprofloxacin] : what is it?
16

Reported MIC50 for NCC[C@H](O)C(=O)N[C@@H]1C[C@H](N)[C@@H](O[C@H]2O[C@H](CN)[C@@H](O)[C@H](O)[C@H]2O)[C@H](O)[C@H]1O[C@H]1O[C@H](CO)[C@@H](O)[C@H](N)[C@H]1O [Amikacin] : what is it?
8
